Values compiled from PubChem BioAssay (NCATS).

Test system: UISO
Assay: qHTS assay to identify novel small-molecules to repurpose for Merkel cell carcinoma treatment (AID 1296009); note: nearly all actives have a fitted effect of over 60% in size; note: potency is the fitted concentration of half-maximal effect
Conditions: MCC and control cell lines, CellTiter-Glo viability, 72 h; series mostly up to 46 µM
Records with an inconclusive call do not appear. Active and inactive are the calls of the source. Calls come from the whole dose curve; as a rule, active = well fitted inhibition curve with a large enough effect; inconclusive = small, poorly fitted or top-dose-only effect; inactive = flat fitted curve, though single readings scatter.
metric: Potency

# compound, metric, reported result
records = [
    ("O=[N+]([O-])c1cncn1CCN1CCOCC1", "Potency", "inactive"),
    ("CC(C)(C)CC(=O)OCC(=O)[C@@]1(O)CC[C@H]2[C@@H]3CCC4=CC(=O)C=C[C@]4(C)[C@H]3[C@@H](O)C[C@@]21C", "Potency", "inactive"),
    ("O=C(O)CCCC[C@@H]1SC[C@@H]2NC(=O)N[C@@H]21", "Potency", "inactive"),
    ("Cc1oc(-c2ccccc2)nc1CCC(=O)c1ccc(CC2SC(=O)NC2=O)cc1 (centres undefined)", "Potency", "inactive"),
]

Quick one: give measured Potency for `CC(=O)OC[C@H]1O[C@@H](OC(C)=O)[C@H](OC(C)=O)[C@@H]1OC(C)=O`
inactive

Identify Potency associated with the compound `CN(C)CCCOC1(Cc2ccccc2)CCCCCC1`
inactive

Look up Potency of `CCC(=O)O[C@H]1[C@H](O[C@@H]2[C@@H](C)[C@H](O[C@H]3C[C@@](C)(OC)[C@@H](O)[C@H](C)O3)[C@@H](C)C(=O)O[C@H](CC)[C@@](C)(O)[C@H](O)[C@@H](C)C(=O)[C@H](C)C[C@@]2(C)O)O[C@H](C)C[C@@H]1N(C)C` and report it.
inactive

Name the recorded Potency of the compound listed here: `Nc1cccc2c(N)cccc12`
10.9 µM (active)

Note down Potency recorded for `CC(C)=CCNc1ncnc2c1ncn2[C@@H]1O[C@H](CO)[C@@H](O)[C@H]1O`
1.88 µM (active)

###

Assignment: determine reported activity, negative = cell killing for the given compounds.
Test: Drug repurposing screens with cells derived from glioblastoma tumor samples (AID 1345199); note: % is set by controls: 0 for no effect and ±100 for the full control effect; nearly all actives have a fitted effect of over 40% in size
Settings: GBM patient neurospheres viability, ATP luminescence, 48 h; at 46 µM (top of the series); tumour line A
Inconclusive results are not listed. Activity calls are given as the source filed them. Calls come from the whole dose curve; as a rule, active = well fitted inhibition curve with a large enough effect; inconclusive = small, poorly fitted or top-dose-only effect; inactive = flat fitted curve, though single readings scatter.

Read the entry `O=C1CC[C@H](C(=O)N2CCCCC2)N1` and write its reported activity, negative = cell killing.
-19.7% (inactive)

Fill in reported activity, negative = cell killing for this entry: `CCCC(=O)O[C@]1(C(=O)COC(=O)CC)CC[C@H]2[C@@H]3CCC4=CC(=O)CC[C@]4(C)[C@H]3[C@@H](O)C[C@@]21C`
-4.97% (inactive)

Using the record for `COc1cc(NS(=O)(=O)c2ccc(N)cc2)nc(C)n1` , state its measured activity, negative = cell killing.
-28.7% (inactive)

Using known records, supply activity, negative = cell killing for `CC(C)(C)c1nnc(NS(=O)(=O)c2ccccc2)s1`
-25.7% (inactive)

Give the reported value of activity, negative = cell killing for this record: `O=C(CCCCC(=O)Nc1c(I)cc(I)c(C(=O)O)c1I)Nc1c(I)cc(I)c(C(=O)O)c1I`
-28.1% (inactive)

###

System: Zika virus NS2B-NS3 protease
Experiment: Primary screen GU AMC qHTS for Zika virus inhibitors (AID 1347154); note: nearly all actives have a fitted effect of over 70% in size
Details: Zika NS2B-NS3 unlinked protease, AMC fluorogenic substrate; series mostly up to 54.1 µM
Source text: Avindra Nath, Ph.D., National Institute of Neurological Disorders and Stroke (NINDS), Bethesda, MD Radhakrishnan Padmanabhan, Ph.D., Georgetown University (GU), Washington D.C. Zika Virus causes congenital defects, including microcephaly and is associated with Guillain-Barre syndrome, eningoencephalitis and myelitis in infected adult. […]
Inconclusive results are not listed. Activity calls are given as the source filed them. Calls follow the shape of the dose curve; as a rule, active = well fitted inhibition curve with a large enough effect; inconclusive = small, poorly fitted or top-dose-only effect; inactive = flat fitted curve, though single readings scatter.
// one of active, inactive, no free text

Look up the recorded call for `Cc1ccc(CCn2c3c(c4cc(Cl)ccc42)CN(C)CC3)cn1` in this test.
inactive

Short answer needed: outcome of this test for `COc1c(N2C[C@@H]3CCCN[C@@H]3C2)c(F)cc2c(=O)c(C(=O)O)cn(C3CC3)c12` ?
active

Outcome? COCCc1ccc(OCC2CO2)cc1 (centres undefined)
inactive

What call does the record list for CCC(C(=O)NC(=O)NC(C)=O)c1ccccc1 (centres undefined) ?
inactive

What did this assay record as the result for `CCCCCCCCCCCCCC[N+](C)(C)C` ?
inactive

I'd appreciate the recorded outcome for CCOC(=O)C(O)c1ccccc1 (centres undefined) from this test.
inactive

Entry CC(Oc1c(Cl)cccc1Cl)C1=NCCN1 (centres undefined) : call = ?
inactive

Kindly provide the recorded test outcome for the following compound: `CN(C)CCN(Cc1ccsc1)c1ccccn1`
inactive

Any idea what this test logged for `CCCCC(=O)OCC(=O)[C@H]1[C@H](C)C[C@H]2[C@@H]3C[C@H](F)C4=CC(=O)C=C[C@]4(C)[C@@]3(F)[C@@H](O)C[C@@]21C` ?
inactive

Assay outcome for `CC(C)C(C)(C)C(C)(C)C(C)(C)S` : what was it?
inactive

Tell me the recorded outcome of this test for `CC(=O)N(c1onc(C)c1C)S(=O)(=O)c1ccc(N)cc1` .
inactive

Assay outcome for `CCOCCn1c(C2CCN(CCc3ccc(C(C)(C)C(=O)O)cc3)CC2)nc2ccccc21` : what was it?
inactive

For O=C(C1CCCCC1)N1CC(=O)N2CCCc3ccccc3C2C1 (centres undefined) , which call appears in the assay record?
inactive

I would be grateful if you could indicate the recorded call for `Cc1[nH]cnc1-c1ccc(Cl)cc1` .
inactive

Please let me know the test result on file for `Oc1ccccc1` .
inactive

I'd appreciate the recorded outcome for `O=[N+]([O-])c1nccn1CO[C@@H](CO)[C@H](O)CO` from this test.
inactive

Look up the recorded call for `O=C(CCCl)NCCc1ccccc1` in this test.
inactive

What did the test return for `O=C1Nc2ccccc2C1(c1ccc(O)cc1)c1ccc(O)cc1` ?
inactive

Please indicate how the test categorized Cc1cccc(OCC(O)CNC(C)(C)C)c1C (centres undefined) .
inactive

Hello, I am checking results. What call was entered for `CC(C)(C)c1cc(C=O)cc(C(C)(C)C)c1O` ?
inactive

Name the outcome recorded for O=C(OCC(O)CO)c1ccccc1Nc1ccnc2c(C(F)(F)F)cccc12 (centres undefined) in the assay.
inactive

So what was the verdict on `CCCC(=O)O[C@]1(C(=O)CCl)[C@@H](C)C[C@H]2[C@@H]3CCC4=CC(=O)C=C[C@]4(C)[C@@]3(F)C(=O)C[C@@]21C` in this test?
inactive

Query: recorded result category for `Cc1cccc(C)c1NC(=O)c1ccc(N)cc1` in this test
inactive

Hello, I am checking results. What call was entered for `CCOC(=O)[C@H](CCc1ccccc1)N[C@@H](C)C(=O)N(CC(=O)O)C1Cc2ccccc2C1` ?
inactive

###

Assay: qHTS Assay for Identifying Gametocytocidal Compounds (AID 743244);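 note: % is set by controls: 0 for no effect and ±100 for the full control effect; actives lower the fluorescent signal which means gametocytes are killed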
Conditions: P. falciparum 3D7 stage III-V gametocytes, alamarBlue, 72 h; active compounds read low
Records with an inconclusive call do not appear.
metric: max response (%)
Give just the numeric value; % need not be written.

Supply recorded max response for `O=C1NC(c2cccc([N+](=O)[O-])c2)=CCN1c1ccccc1O` here.
21.2

Return the recorded max response value; entry: `O=C(CCC1CCN(Cc2ccccc2)CC1)c1ccc2c(c1)NCCCC2`
-4.54

Tell me its max response given `C[C@@H](O[C@H]1OCCN(Cc2n[nH]c(=O)[nH]2)[C@H]1c1ccc(F)cc1)c1cc(C(F)(F)F)cc(C(F)(F)F)c1` as the entry.
16.6

Give the reported max response for this compound. `COc1ccccc1N1CCN(CCN2C(=O)CC3(CCCC3)CC2=O)CC1`
21.4

Using known records, supply max response for `CN1CCC(N(Cc2cccs2)c2ccccc2)CC1`
8.89

Report max response for CC(C(=O)O)c1ccc(/C=C2\CCCCC2=O)cc1 (centres undefined)
-9.38

Fill in max response for record `O=C(OCC(COC(=O)c1cccnc1)(COC(=O)c1cccnc1)COC(=O)c1cccnc1)c1cccnc1`
13.3

Return max response for the following compound: CCC(C(=O)NC(=O)NC(C)=O)c1ccccc1 (centres undefined)
-11.8

Supply reported max response belonging to this compound: `CO/N=C(/C(=O)N[C@@H]1C(=O)N2C(C(=O)OCOC(=O)C(C)(C)C)=C(C)CS[C@H]12)c1csc(N)n1`
-0.603

Report measured max response; entry is CC(C)C[C@H](NC(=O)CNC(=O)[C@H](Cc1ccc(O)cc1)NC(=O)[C@H](CO)NC(=O)[C@H](Cc1c[nH]c2ccccc12)NC(=O)[C@H](Cc1cnc[nH]1)NC(=O)[C@@H]1CCC(=O)N1)C(=O)N[C@@H](CCCN=C(N)N)C(=O)N1CCC[C@H]1C(=O)NCC(N)=O (stereo in doubt)
-1.4

Return reported max response. Input compound: `Cn1cnc2c(NCc3ccccc3)nc(NCCO)nc21`
11.6

Give max response for CCCCCC1Nc2cc(C(F)(F)F)c(S(N)(=O)=O)cc2S(=O)(=O)N1 (centres undefined)
13.4

Read the entry `CC(=O)OCC(=O)Nc1cc(C#N)cc(NC(=O)COC(C)=O)c1Cl` and write its reported max response.
-6.24

Provide only the value of recorded max response for `CN1C(=O)c2ccccc2C1=O`
10.3

Answer with reported max response of `O=C(O)CCCC[C@@H]1SC[C@@H]2NC(=O)N[C@@H]21`
-7.74

Input `CN=C(N)NC(=O)Nc1c(C)cccc1C` , output reported max response.
9.51

Indicate the recorded max response value for this compound: `CO[C@]1(NC(=O)CSC(F)F)C(=O)N2C(C(=O)O)=C(CSc3nnnn3CCO)CO[C@H]21`
19.9

Give the value of max response reported for the following: CC1CN(c2cc3c(cc2F)c(=O)c(C(=O)O)cn3-c2ccc(F)cc2F)CCN1 (centres undefined)
-18.1

Item `CCCc1c2oc(C(=O)O)cc(=O)c2cc2c(=O)cc(C(=O)O)n(CC)c12` : provide max response
-6.99

Specify max response for CC(NN)c1ccccc1 (centres undefined) and stop.
-6.49

Could you please provide reported max response for `N[C@@H](Cn1ccc(=O)c(O)c1)C(=O)O` ? Thanks!
9.87

Fill in max response for record `C=CCOc1cc(Cl)ccc1C(=O)NCCN(CC)CC`
9.51

Supply max response value. Item: `CN1CCC(=C2c3ccccc3CCc3cccnc32)CC1`
7.49

Supply reported max response belonging to this compound: `O=C(O)Cc1ccccc1Oc1ccc(Cl)cc1Cl`
10.5

Supply recorded max response for `Oc1ccccc1` here.
2.14

Annotate the compound `CC(=O)N[C@@H](CCC(N)=O)C(=O)O` with its measured max response.
4.31

Respond only with max response recorded for `CCCCNc1ccc(C(=O)OCCN(CC)CC)cc1`
-4.4

Identify measured max response associated with `OC(CCCN1CCCCC1)(c1ccccc1)c1ccccc1`
-13.7

Output measured max response for this item: `OCCc1ccccc1`
0.746

Entry COc1cc(C(=O)NC2CCCNC2)cc(OC)c1OC (centres undefined) needs its max response filled in; supply it.
-0.328

Return the recorded max response value; entry: `CCCC(=O)O[C@]1(C(=O)COC(=O)CC)CC[C@H]2[C@@H]3CCC4=CC(=O)CC[C@]4(C)[C@H]3[C@@H](O)C[C@@]21C`
31.6

For the compound `Brc1ccc([C@H]2CN3CCSC3=N2)cc1` , give its reported max response.
13.2

Query max response for `CCOC(=O)NNc1nncc2ccccc12`
-13.4

Look up max response of COc1ccccc1OCC1CNC(=O)O1 (centres undefined) and report it.
-14.2

Note max response for the compound shown: C1=CC2C3C=CC(C3)C2C1 (centres undefined)
-11.9

Determine its reported max response: CCCCC(CC)COC(=O)c1ccccc1C(=O)O (centres undefined)
-17.7

Please give measured max response of the following entry: CCCCC/C=C\C/C=C\CCCCCCCC(=O)NC(C)c1ccccc1 (centres undefined)
-1.75

Tell us which max response value is on record for `CCOC(=O)c1ccc(NC(=O)CN2CCCCC2)cc1`
11.1

State, in one line, measured max response of `O=C(Oc1ccccc1)c1cccc(C(=O)Oc2ccccc2)c1`
-7.52

Provide measured max response value, entry: `CN(C)C(=O)CNC(=O)Cc1ccccc1`
15

Tell us which max response value is on record for CC(C)OC(=O)c1cc2c(OCC(O)CNC(C)(C)C)cccc2[nH]1 (centres undefined)
0.786

Respond only with max response recorded for `O=C(OCC1(COC(=O)c2cccnc2)CCCC(COC(=O)c2cccnc2)(COC(=O)c2cccnc2)C1O)c1cccnc1`
-9.22

Entry `O=C1[C@@H]2[C@H]3CC[C@H](C3)[C@@H]2C(=O)N1CCCCN1CCN(c2ncccn2)CC1` needs its max response filled in; supply it.
4.19

Specify reported max response for the compound shown: `COc1c(C)c2c(c(O)c1C/C=C(\C)CCC(=O)OCCN1CCOCC1)C(=O)OC2`
2.71
